B1: HEEH_KT_rd6_3632 (parent)
chain: DAEELIELVERALKEGREIILLGVRITSEEAGKWFIEWIRRFL

# Variants of: B1
# testSummary: folding stability dG (cDNA display proteolysis); higher = more stable
# experimentalConditions: PBS, room temperature
observedProperty: folding stability dG (kcal/mol)
Entry rule: numbers only, all in kcal/mol.

Please review the entries below; each comes with its answer.
>  <mutationId>
E15F

>  <folding stability dG [kcal/mol]>
3.64

$$$$
>  <mutationId>
L5V

>  <folding stability dG [kcal/mol]>
3.23

$$$$
>  <mutationId>
G16C

>  <folding stability dG [kcal/mol]>
4.34

$$$$
>  <mutationId>
R11S

>  <folding stability dG [kcal/mol]>
3.32

$$$$
>  <mutationId>
L13M

>  <folding stability dG [kcal/mol]>
3.67

$$$$
>  <mutationId>
E3Q

>  <folding stability dG [kcal/mol]>
3.94

$$$$
>  <mutationId>
E10D

>  <folding stability dG [kcal/mol]>
3.41

$$$$
>  <mutationId>
R17Y

>  <folding stability dG [kcal/mol]>
3.84

$$$$
>  <mutationId>
R11P

>  <folding stability dG [kcal/mol]>
3.08

$$$$
>  <mutationId>
G16A

>  <folding stability dG [kcal/mol]>
3.84

$$$$

Answer with the recorded folding stability dG for the variant listed here: `L22S`
3.1
